B1: 2K2A (parent)
chain: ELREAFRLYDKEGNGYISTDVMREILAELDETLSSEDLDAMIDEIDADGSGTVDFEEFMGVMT

Variants of: B1
assay.summary: folding stability dG (cDNA display proteolysis); higher = more stable
condition.set: PBS, room temperature
Param threshold (2 kcal/mol) applies to folding stability dG; output Criterion met when value >= threshold, Criterion not met when value < threshold.

{"variant.identifier": "L29E", "class": "Criterion not met"}

Query: Check the entry S18Q : does folding stability dG equal or exceed 2 kcal/mol?
Response: Criterion not met

Query: Given A47L , state whether its folding stability dG is at least 2 kcal/mol.
Response: Criterion not met

Data origin, for the record: the MegaScale stability set (Tsuboyama et al. 2023)
